test: Pharmacokinetics of AUY922 and its glucuronide metabolite BJP762 in blood (LC-MS/MS, non-compartmental); type: in vivo, human (Japanese patients with advanced solid tumors); conditions: human, whole blood, iv, 54 mg/m2
endpoint: AUC(0-t) (ng·h/mL)
Field: numeric (ng·h/mL). Do not append units.

Q) Name the recorded AUC(0-t) of the item `CCNC(=O)c1noc(-c2cc(C(C)C)c(O)cc2O)c1-c1ccc(CN2CCOCC2)cc1` in your answer.
A) 8880

* * *

Assay: Pharmacokinetics of AUY922 and its glucuronide metabolite BJP762 in blood (LC-MS/MS, non-compartmental)
Type: in vivo, human (Japanese patients with advanced solid tumors)
Settings: human, whole blood, iv, 70 mg/m2
Method: Intra-patient dose escalation was not permitted. […] The occurrence of DLTs was evaluated during Cycle 1.
endpoint: AUC(0-t)
Note: state the figure and append the unit.

Q) Identify measured AUC(0-t) associated with `CCNC(=O)c1noc(-c2cc(C(C)C)c(O)cc2O)c1-c1ccc(CN2CCOCC2)cc1`
A) 8540 ng·h/mL
